Recorded measurements of pIC50, one per entry
experimental_system: HLA-DR DRB1*0405 (human)
measurement_description: competition with 125I-labelled peptide, purified HLA
API: returns pIC50 as number; meaning -log10 of concentration in mol/L.

# example entries with known answers
binder: EECLINDPWVLLNAS (modifications not checked) [Flu.PA.694]
pIC50: 4.82
//
binder: SLMLQIGNMISIWVSHS (modifications not checked) [Flu.NA.21]
pIC50: 7.18
//
binder: LEGFSAESRKLLLVV (modifications not checked) [Flu.PA.658]
pIC50: 5.41

Let us examine a further case.
Record YIQMCTELKLSDYEG (modifications not checked) [Flu.NP.43] . Reported pIC50: 5.57
